test system: OVCAR-3 ovarian; assay: NCI tumour cell line growth inhibition, 48 h; in the data active = GI50 below about 0.43 µM; inactive = the rest
API: response.call in active, inactive

Query: Could you kindly confirm the outcome this assay logged for C=CC(=O)Nc1cc2c(Nc3ccc(OCc4ccccn4)c(Cl)c3)ncnc2cc1OCCN1CCOCC1 ?
Response: inactive

Query: Outcome logged for COc1ccc(OC)c(-c2nc3sccn3c2/C=C2/C(=O)Nc3ccccc32)c1 in this assay:
Response: active

Query: Tell me the assay call for C#C[C@]1(O)CC[C@H]2[C@@H]3CC=C4c5nc(Nc6ccc(OC)cc6OC)sc5CC[C@]4(C)[C@H]3CC[C@@]21C please.
Response: inactive

Query: Called result for COC(=O)/C(=C/N1CCN(C(=O)c2ccco2)C1=S)C(C)=O
Response: inactive

Query: Check the results log: what was the call for COc1ccc2[nH]cc(/C=C3\C(=O)Nc4ccccc43)c2c1 ?
Response: inactive

Query: Recorded call for O=C1c2cccc3c(N4CCN(c5ccc6c7c(cccc57)C(=O)N(CCN5CCNCC5)C6=O)CC4)ccc(c23)C(=O)N1CCN1CCNCC1 ?
Response: inactive
